Reported binding as % of Reference Sequence (=100%) values for a set of binders
measurement_target: purified interference factor(s) from serum of Donor A
experimental_protocol: SPR, interference factor on CM5 chip
Write the value in % as a bare number.

Solved cases (3 shown):
Nanobody or Nanobody construct of SEQ ID NO: 47 (VHH) VHH: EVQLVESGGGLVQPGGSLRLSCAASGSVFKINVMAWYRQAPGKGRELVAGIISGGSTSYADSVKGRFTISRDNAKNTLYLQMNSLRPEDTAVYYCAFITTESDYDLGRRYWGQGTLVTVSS | 1
Nanobody or Nanobody construct of SEQ ID NO: 42 (VHH) EVQLVESGGGLVQPGGSLRLSCAASGRTFSYNPMGWFRQAPGKGRELVAAISRTGGSTYYPDSVEGRFTISRDNAKRMVYLQMNSLRAEDTAVYYCAAAGVRAEDGRVRTLPSEYTFWGQGTQVTVSSAAAEVQLVESGGGLVQPGGSLRLSCAASGRTFSYNPMGWFRQAPGKGRELVAAISRTGGSTYYPDSVEGRFTISRDNAKRMVYLQMNSLRAEDTAVYYCAAAGVRAEDGRVRTLPSEYTFWGQGTQVTVSSA | 1
Nanobody or Nanobody construct of SEQ ID NO: 87 (VHH) VHH: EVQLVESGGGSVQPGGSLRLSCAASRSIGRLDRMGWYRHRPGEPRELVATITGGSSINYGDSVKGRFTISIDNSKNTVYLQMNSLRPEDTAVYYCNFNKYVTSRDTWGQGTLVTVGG | 51

GET /value?item= Nanobody or Nanobody construct of SEQ ID NO: 89 (VHH) VHH: EVQLVESGGGSVQAGGSLRLSCAASRSIGRLDRMGWYRHRPGEPRELVATITGGSSINYGDSVKGRFTISIDNSKNTVYLQMNSLRPEDTAVYYCNFNKYVTSRDTWGQGTLVQVGG &field=binding as % of Reference Sequence (=100%) returns 14

GET /value?item= Nanobody or Nanobody construct of SEQ ID NO: 82 (VHH) VHH: EVQLVESGGGLVQPGGSLRLSCAASRSIGRLDRMGWYRHRPGEPRELVATITGGSSINYGDSVKGRFTISIDNSKNTVYLQMNSLRAEDTAVYYCNFNKYVTSRDTWGQGTLVTVSS &field=binding as % of Reference Sequence (=100%) returns 96

GET /value?item= Nanobody or Nanobody construct of SEQ ID NO: 81 (VHH) VHH: EVQLVESGGGVVQPGGSLRLSCAASRSIGRLDRMGWYRHRPGEPRELVATITGGSSINYGDSVKGRFTISIDNSKNTVYLQMNSLRPEDTAVYYCNFNKYVTSRDTWGQGTLVTVSS &field=binding as % of Reference Sequence (=100%) returns 94

GET /value?item= Nanobody or Nanobody construct of SEQ ID NO: 45 (VHH) VHH: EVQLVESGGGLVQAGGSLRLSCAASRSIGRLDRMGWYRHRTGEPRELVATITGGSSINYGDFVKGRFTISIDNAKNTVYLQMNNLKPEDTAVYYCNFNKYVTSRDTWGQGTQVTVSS &field=binding as % of Reference Sequence (=100%) returns 0
